- target of assay: T1, recombinant human soluble gpNMB (recombinant human gpNMB-FLAG-His) (human, UniProt Q14956 23-498)
- T1 sequence: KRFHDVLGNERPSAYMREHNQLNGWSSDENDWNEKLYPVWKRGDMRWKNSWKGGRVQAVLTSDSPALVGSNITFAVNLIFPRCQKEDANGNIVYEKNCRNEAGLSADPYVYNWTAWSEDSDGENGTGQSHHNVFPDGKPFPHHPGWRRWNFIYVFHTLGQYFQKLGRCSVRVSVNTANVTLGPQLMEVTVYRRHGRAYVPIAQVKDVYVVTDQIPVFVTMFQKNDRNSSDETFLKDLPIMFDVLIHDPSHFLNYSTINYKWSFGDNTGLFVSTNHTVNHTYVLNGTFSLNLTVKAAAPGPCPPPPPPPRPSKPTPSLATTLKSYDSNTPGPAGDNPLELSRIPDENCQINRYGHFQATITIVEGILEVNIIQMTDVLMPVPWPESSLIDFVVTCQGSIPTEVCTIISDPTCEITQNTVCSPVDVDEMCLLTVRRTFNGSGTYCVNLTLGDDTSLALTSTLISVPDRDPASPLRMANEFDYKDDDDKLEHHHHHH
- assay comment: antigen ELISA
measured endpoint: EC50 (nM)
Answers are plain numbers, in nM.

// EC50 lookup, key: hGPN06-1_H1L1 VH Y60A (antibody, V domains shown) VH: QVQLVQSGAEVKKPGASVKVSCKASGYTFTDNWMGWVKQRPGQGLEWIGAIDPSDSFTNANQNFKGRVTMTVDTSISTAYMELSRLRSDDSAVYFCTRSGYYGSPKLGGDYWGQGTLVTVSS VL: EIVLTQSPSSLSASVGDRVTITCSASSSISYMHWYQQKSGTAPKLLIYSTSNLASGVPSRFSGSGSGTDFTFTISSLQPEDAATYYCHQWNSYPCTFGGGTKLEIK 128

Every entry's value here was drawn from patent EP4772193A1.
